Lab note: IC50 readings collected with Huntingtin (Homo sapiens, UniProt P42858) for the following compounds.
Sequence (P42858 whole entry): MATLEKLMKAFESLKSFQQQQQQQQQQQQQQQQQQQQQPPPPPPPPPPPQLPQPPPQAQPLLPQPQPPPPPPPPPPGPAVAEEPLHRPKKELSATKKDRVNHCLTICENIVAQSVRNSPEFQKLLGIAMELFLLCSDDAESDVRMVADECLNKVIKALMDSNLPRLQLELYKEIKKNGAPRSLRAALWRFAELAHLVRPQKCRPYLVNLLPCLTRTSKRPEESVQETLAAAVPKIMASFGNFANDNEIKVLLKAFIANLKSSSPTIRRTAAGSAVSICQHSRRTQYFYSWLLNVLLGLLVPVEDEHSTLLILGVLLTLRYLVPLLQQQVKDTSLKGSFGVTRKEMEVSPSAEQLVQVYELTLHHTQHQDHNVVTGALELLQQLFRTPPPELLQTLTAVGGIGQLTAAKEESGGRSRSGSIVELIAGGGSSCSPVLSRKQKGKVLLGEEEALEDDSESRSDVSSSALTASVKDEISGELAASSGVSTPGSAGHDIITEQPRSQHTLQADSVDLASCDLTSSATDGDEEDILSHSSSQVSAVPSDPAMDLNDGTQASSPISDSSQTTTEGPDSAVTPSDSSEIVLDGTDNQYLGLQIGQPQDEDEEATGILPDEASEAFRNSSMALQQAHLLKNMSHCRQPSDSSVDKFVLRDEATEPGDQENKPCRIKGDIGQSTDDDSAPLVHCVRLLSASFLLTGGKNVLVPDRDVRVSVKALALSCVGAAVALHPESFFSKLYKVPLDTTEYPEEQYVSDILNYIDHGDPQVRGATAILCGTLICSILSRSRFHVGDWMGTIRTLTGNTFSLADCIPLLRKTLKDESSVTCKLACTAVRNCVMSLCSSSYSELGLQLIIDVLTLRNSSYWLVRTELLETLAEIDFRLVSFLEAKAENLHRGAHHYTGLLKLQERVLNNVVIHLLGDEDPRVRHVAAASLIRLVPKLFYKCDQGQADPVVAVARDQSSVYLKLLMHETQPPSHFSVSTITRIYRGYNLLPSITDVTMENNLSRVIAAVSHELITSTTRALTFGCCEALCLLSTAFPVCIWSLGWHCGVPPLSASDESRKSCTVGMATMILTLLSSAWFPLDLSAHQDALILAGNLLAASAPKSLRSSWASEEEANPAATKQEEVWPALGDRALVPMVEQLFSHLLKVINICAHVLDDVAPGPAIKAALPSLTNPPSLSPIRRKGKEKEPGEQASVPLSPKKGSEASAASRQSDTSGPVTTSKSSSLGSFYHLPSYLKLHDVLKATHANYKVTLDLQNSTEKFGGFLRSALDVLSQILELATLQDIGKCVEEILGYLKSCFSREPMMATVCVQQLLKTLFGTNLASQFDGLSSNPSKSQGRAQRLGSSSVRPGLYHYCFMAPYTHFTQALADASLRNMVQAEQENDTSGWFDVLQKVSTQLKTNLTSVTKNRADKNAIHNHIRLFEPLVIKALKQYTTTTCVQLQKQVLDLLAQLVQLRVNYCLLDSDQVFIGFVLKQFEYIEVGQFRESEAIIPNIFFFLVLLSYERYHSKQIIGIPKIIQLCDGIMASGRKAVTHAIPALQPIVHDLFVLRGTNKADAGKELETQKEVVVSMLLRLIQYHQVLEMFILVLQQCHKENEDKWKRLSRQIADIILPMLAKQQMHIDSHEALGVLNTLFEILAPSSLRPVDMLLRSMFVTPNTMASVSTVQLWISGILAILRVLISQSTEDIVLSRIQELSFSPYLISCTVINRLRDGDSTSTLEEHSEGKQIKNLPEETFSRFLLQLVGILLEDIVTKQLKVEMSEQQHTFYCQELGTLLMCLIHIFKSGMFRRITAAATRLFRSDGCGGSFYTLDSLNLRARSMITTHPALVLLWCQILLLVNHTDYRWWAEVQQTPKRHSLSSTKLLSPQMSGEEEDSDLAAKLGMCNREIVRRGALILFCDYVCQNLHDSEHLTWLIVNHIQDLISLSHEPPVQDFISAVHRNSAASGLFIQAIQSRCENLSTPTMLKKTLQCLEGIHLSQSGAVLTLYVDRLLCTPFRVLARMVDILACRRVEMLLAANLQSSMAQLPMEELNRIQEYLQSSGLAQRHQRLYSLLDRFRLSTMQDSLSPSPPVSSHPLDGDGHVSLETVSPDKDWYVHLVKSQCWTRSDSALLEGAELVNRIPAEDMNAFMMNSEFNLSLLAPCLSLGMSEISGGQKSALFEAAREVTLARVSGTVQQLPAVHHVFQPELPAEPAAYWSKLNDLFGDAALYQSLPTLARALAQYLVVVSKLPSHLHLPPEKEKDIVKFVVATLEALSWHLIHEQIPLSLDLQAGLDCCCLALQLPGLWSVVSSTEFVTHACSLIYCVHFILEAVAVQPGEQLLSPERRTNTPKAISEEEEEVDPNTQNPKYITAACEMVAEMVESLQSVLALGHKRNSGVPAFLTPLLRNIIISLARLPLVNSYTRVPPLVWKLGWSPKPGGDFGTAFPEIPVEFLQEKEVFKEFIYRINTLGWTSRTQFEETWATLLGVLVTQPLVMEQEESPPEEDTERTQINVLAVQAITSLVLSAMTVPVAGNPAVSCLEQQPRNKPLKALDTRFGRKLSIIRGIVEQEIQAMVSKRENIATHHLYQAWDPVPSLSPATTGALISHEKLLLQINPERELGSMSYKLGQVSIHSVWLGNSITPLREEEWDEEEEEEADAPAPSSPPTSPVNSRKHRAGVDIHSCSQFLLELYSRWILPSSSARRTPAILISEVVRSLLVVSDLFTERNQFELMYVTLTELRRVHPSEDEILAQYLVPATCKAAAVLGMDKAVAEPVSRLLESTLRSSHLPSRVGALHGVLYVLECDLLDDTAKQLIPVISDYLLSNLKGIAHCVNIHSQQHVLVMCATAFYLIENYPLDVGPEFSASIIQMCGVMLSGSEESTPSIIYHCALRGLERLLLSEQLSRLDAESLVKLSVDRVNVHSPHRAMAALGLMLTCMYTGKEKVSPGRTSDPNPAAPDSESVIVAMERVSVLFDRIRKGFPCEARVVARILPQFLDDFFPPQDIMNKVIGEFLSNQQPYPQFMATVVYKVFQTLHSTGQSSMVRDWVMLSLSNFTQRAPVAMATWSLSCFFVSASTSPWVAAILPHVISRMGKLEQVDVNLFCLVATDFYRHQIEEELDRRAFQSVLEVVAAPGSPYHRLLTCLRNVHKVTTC
Attribute Measured: IC50 (µM)

1. N#CC(C(=O)Nc1ccc(Cl)cc1)C(=S)Nc1ccccc1 (stereo unspecified) | 6.14
2. O=C1C(=O)N(c2nc3ccc(Cl)cc3s2)C(c2ccco2)C1C(=O)c1ccco1 (stereo unspecified) | 0.987
3. N#CC(C#N)C(=Nc1ccc(F)cc1)SCc1cccc(Br)c1 | 7.57
4. Cc1ccc2nc(N3C(=O)C(=O)C(C(=O)c4ccco4)C3c3ccc(C)o3)sc2c1 (stereo unspecified) | 0.624
5. COC(=O)c1sc(N2C(=O)C(=O)C(C(=O)c3ccc(C)o3)C2c2ccc([N+](=O)[O-])cc2)nc1C (stereo unspecified) | 0.636
6. Cc1[nH]n(C(N)=S)c(=O)c1N=Nc1c(Br)cc(Br)cc1Br | 5.73

Cited source: BindingDB's records for doi:10.7270/Q2N58K09
